Cited source for all entries: the RNAGym collection of RNA variant scans (doi:10.7554/elife.90254)

B1: LINE1-mini (parent)
chain: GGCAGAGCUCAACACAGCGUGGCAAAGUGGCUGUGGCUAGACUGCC

Variants of: B1
Assay: self-cleavage, relative activity (ratio to wild type); higher = more cleavage; in vitro, sequencing; the parent is a self-cleaving ribozyme
Use y when the recorded self-cleavage is no lower than 0.1; use n when it is lower.

> print(dat)
    mutation.code  classification
 1       A4C G40C               y
 2      G22U U38G               n
 3       C3A C31G               y
 4      G21C U34C               y
 5      G21C C45G               n
 6      G17A G40C               n
 7      U43G C46G               y
 8      C23G C42G               n
 9      G19U G40C               n
10       C3G G27C               y
11      A14C G40A               n
12      A14U U32C               y
13      G21U G33A               y
14      U32G A39G               y
15       G2C A24C               n
16      U34A C42A               n
17        A4U U9A               y
18       A4C C23U               y
19      U28C U38G               n
20       G7C C13U               y
21      C13U U38G               n
22      A14G C45U               y
